B1: library; numbered along this chain (parent)
chain: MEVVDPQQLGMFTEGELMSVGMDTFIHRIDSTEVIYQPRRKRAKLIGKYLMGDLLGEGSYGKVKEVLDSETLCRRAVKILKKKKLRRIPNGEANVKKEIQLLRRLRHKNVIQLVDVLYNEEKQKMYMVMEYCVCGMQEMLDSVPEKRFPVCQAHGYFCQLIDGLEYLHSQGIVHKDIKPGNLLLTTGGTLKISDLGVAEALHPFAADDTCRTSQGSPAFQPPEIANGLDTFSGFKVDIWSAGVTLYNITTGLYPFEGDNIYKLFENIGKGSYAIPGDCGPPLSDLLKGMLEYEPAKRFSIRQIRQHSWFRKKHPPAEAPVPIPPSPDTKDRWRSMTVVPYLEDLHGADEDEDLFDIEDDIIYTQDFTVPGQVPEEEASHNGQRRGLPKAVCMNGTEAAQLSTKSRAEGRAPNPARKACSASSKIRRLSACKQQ

variants of: B1; test: STK11 functional score (HeLa growth suppression), rescaled enrichment; synonymous median = 1, nonsense median = 0 (normalised score); conditions: with HeLa; variant type: missense
quantity: STK11 functional score
# answer = number (no unit)

Check out these entries, answers already filled in.
>>> print(df.to_string())
   mutation_descriptor  recorded_measurement
0                 V20A                  1.29
1                L113W                 0.222
2                K269T                  1.47

Lookup: Query: STK11 functional score; subject: E70R
Found: 1.67
